EXPERIMENTAL_TARGET: thrombin; note: test concentration or dose not given here
TEST_PROTOCOL: cell-based or functional assay
MEASURED_PARAMETER: % Inhibition

INSERT INTO results (binder, recorded_measurement) VALUES
  ('AATG1g (other, human, mature) HHHHHHEDPQGDAAQKTDTSHHDQDHPTFNKITPNLAEFAFSLYRQLAHQSNSTNIFFSPVSIATAFAMLSLGTKADTHDEILEGLNFNLTEIPEAQIHEGFQELLRTLNQPDSQLQLTTGNGLFLSEGLKLVDKFLEDVKKLYHSEAFTVNFGDTEEAKKQINDYVEKGTQGKIVDLVKELDRDTVFALVNYIFFKGKWERPFEVKDTEEEDFHVDQVTTVKVPMMKRLGMFNIQHCKKLSSWVLLMKYLGNATAIFFLPDEGKLQHLENELTHDIITKFLENEDRRSASLHLPKLSITGTYDLKSVLGQLGITKVFSNGADLSGVTEEAPLKLSKAVHKAVLTIDEKGTEAAGAMFLEGSLRGIPPEVKFNKPFVFLMIEQNTKSPLFMGKVVNPTQK', '0%'),
  ('AATG1 (other, human, mature) HHHHHHEDPQGDAAQKTDTSHHDQDHPTFNKITPNLAEFAFSLYRQLAHQSNSTNIFFSPVSIATAFAMLSLGTKADTHDEILEGLNFNLTEIPEAQIHEGFQELLRTLNQPDSQLQLTTGNGLFLSEGLKLVDKFLEDVKKLYHSEAFTVNFGDTEEAKKQINDYVEKGTQGKIVDLVKELDRDTVFALVNYIFFKGKWERPFEVKDTEEEDFHVDQVTTVKVPMMKRLGMFNIQHCKKLSSWVLLMKYLGNATAIFFLPDEGKLQHLENELTHDIITKFLENEDRRSASLHLPKLSITGTYDLKSVLGQLGITKVFSNGADLSGVTEEAPLKLSKAVHKAVLTIDEKGTEAAGAMFLEGSLRSIPPEVKFNKPFVFLMIEQNTKSPLFMGKVVNPTQK', '51%');
